Numbers sourced from paper PMC6126370.

Assay Text: Clinical pharmacokinetics of PU-H71 in plasma and urine
Type: in vivo, human
Applied Conditions: human, plasma, iv, 470 mg/m^2
Reported Endpoint: clearance

Reported clearance for "CC(C)NCCCn1c(Sc2cc3c(cc2I)OCO3)nc2c(N)ncnc21" was 2 mL/min/kg

* * *

Assay Text: Clinical pharmacokinetics of PU-H71 in plasma and urine
Assay type: in vivo, human
Applied Conditions: human, plasma, iv, 60 mg/m^2
Reported Endpoint: AUC(0-t) (µM·h)
Report only the number, with the unit µM·h understood.

Reported AUC(0-t) for "CC(C)NCCCn1c(Sc2cc3c(cc2I)OCO3)nc2c(N)ncnc21" was 4.55

* * *

Assay Text: Clinical pharmacokinetics of PU-H71 in plasma and urine
Format: in vivo, human
Applied Conditions: human, plasma, iv, 60 mg/m^2
Reported Endpoint: AUC(0-inf) (µM·h)
Report only the number, with the unit µM·h understood.

Reported AUC(0-inf) for "CC(C)NCCCn1c(Sc2cc3c(cc2I)OCO3)nc2c(N)ncnc21" was 5.02
